So I've got a bunch of compounds here, and I need their inhibition in vivo at 20 mg/kg values.
system: Rattus norvegicus; experiment: Antiinflammatory activity in carrageenan-induced rat paw edema model assessed as inhibition of TNFalpha level in paw at 20 mg/kg, po administered 1 hr followed by carrageenan challenge by ELISA relative to control; format: functional
Output spec: scalar in %, unitless text.

Lookup: Supply inhibition in vivo at 20 mg/kg value. Item: "CCc1ccc(N2C(=O)CS/C2=N/NC(=O)COc2ccc(Cl)cc2Cl)cc1"
Found: 61.9

Lookup: Input "COc1ccccc1N1C(=O)CS/C1=N/NC(=O)COc1ccc(Cl)cc1Cl" , output reported inhibition in vivo at 20 mg/kg.
Found: 59.6

Lookup: Report measured inhibition in vivo at 20 mg/kg; entry is "COc1ccc2c(c1)c(CC(=O)O)c(C)n2C(=O)c1ccc(Cl)cc1"
Found: 66.5

Lookup: Supply inhibition in vivo at 20 mg/kg value. Item: "O=C(COc1ccc(Cl)cc1Cl)N/N=C1/SCC(=O)N1Cc1ccccc1"
Found: 70.2

Lookup: Assign inhibition in vivo at 20 mg/kg to the following record: "O=C(COc1ccc(Cl)cc1Cl)N/N=C1/SCC(=O)N1c1ccc(Br)cc1"
Found: 60.4

Lookup: Identify measured inhibition in vivo at 20 mg/kg associated with "O=C(COc1ccc(Cl)cc1Cl)N/N=C1/SCC(=O)N1C1CCCCC1"
Found: 68.4

###

tested on: Mus musculus; assay: Analgesic activity in Swiss albino mouse assessed as protection against acetic acid-induced writhing at 20 mg/kg, po administered 30 mins followed by acetic acid challenge measured over 10 mins relative to control; type: functional
Provide the recorded Activity for the entries that follow.
Kindly answer with a numeric value in %, unit omitted.

Lookup: Supply recorded Activity for "O=C(COc1ccc(Cl)cc1Cl)N/N=C1/SCC(=O)N1Cc1ccccc1" here.
Found: 51.57

Lookup: Item "O=C(COc1ccc(Cl)cc1Cl)N/N=C1/SCC(=O)N1C1CCCCC1" : provide Activity
Found: 49.26

Lookup: Identify measured Activity corresponding to "O=C(COc1ccc(Cl)cc1Cl)N/N=C1/SCC(=O)N1c1ccc(Br)cc1"
Found: 41.81

Lookup: Please give the documented Activity of "COc1ccc2c(c1)c(CC(=O)O)c(C)n2C(=O)c1ccc(Cl)cc1"
Found: 54.37

Lookup: Name the recorded Activity of the item "O=C(COc1ccc(Cl)cc1Cl)N/N=C1/SCC(=O)N1c1ccccc1Cl" in your answer.
Found: 46.1

Lookup: Fill in reported Activity for this entry: "CCc1ccc(N2C(=O)CS/C2=N/NC(=O)COc2ccc(Cl)cc2Cl)cc1"
Found: 39.36

###

system: Rattus norvegicus; assay: Antiinflammatory activity in rat assessed as inhibition of carrageenan-induced paw edema at 20 mg/kg, po administered 1 hr followed by carrageenan challenge measured at 3 hrs by plethysmometer relative to control; format: functional
Group membership follows inhibition in vivo at 20 mg/kg per the scheme b0 (below 60%), b1 (60% to below 70%), b2 (70% or more)

Lookup: Band assignment needed for "CCc1ccc(N2C(=O)CS/C2=N/NC(=O)COc2ccc(Cl)cc2Cl)cc1" please.
Found: b1

Lookup: Consider "O=C(COc1ccc(Cl)cc1Cl)N/N=C1/SCC(=O)N1C1CCCCC1" . To which inhibition in vivo at 20 mg/kg class does it belong?
Found: b2

Lookup: Band of "CCOc1ccc(N2C(=O)CS/C2=N/NC(=O)COc2ccc(Cl)cc2Cl)cc1" ?
Found: b0

Lookup: Hi there! Could you help me figure out the category for "CCCCN1C(=O)CS/C1=N/NC(=O)COc1ccc(Cl)cc1Cl" please?
Found: b0

Lookup: Band for the recorded inhibition in vivo at 20 mg/kg of "O=C(COc1ccc(Cl)cc1Cl)N/N=C1/SCC(=O)N1c1ccc(Cl)cc1" ?
Found: b1

Lookup: // return the class label for "COc1ccc(N2C(=O)CS/C2=N/NC(=O)COc2ccc(Cl)cc2Cl)cc1"
Found: b0

Lookup: Exam item: assign "O=C(COc1ccc(Cl)cc1Cl)N/N=C1/SCC(=O)N1c1ccccc1Cl" to the correct category.
Found: b1

Lookup: Form: Item = COc1ccc2c(c1)c(CC(=O)O)c(C)n2C(=O)c1ccc(Cl)cc1 [INDOMETHACIN] ; Class = ?
Found: b2

Lookup: Input "COc1ccccc1N1C(=O)CS/C1=N/NC(=O)COc1ccc(Cl)cc1Cl" ; output its category
Found: b0

Lookup: Using the reported inhibition in vivo at 20 mg/kg, which band applies to "Cc1ccc(N2C(=O)CS/C2=N/NC(=O)COc2ccc(Cl)cc2Cl)cc1" ?
Found: b0

Lookup: Bin this entry: Cc1ccc(-c2cc(C(F)(F)F)nn2-c2ccc(S(N)(=O)=O)cc2)cc1 [CELECOXIB]
Found: b2

###

tested on: Rattus norvegicus; assay: Antiinflammatory activity in rat assessed as inhibition of carrageenan-induced paw edema at 20 mg/kg, po administered 1 hr followed by carrageenan challenge measured at 3 hrs by plethysmometer relative to control; assay type: functional
property-measured: inhibition in vivo at 20 mg/kg (%)
Please reply with the bare figure in % and do not write the unit itself.

Lookup: Report value: inhibition in vivo at 20 mg/kg, system: Rattus norvegicus, molecule: "O=C(COc1ccc(Cl)cc1Cl)N/N=C1/SCC(=O)N1c1ccc(Br)cc1"
Found: 70

Lookup: Fill: inhibition in vivo at 20 mg/kg (Rattus norvegicus) for this molecule "O=C(COc1ccc(Cl)cc1Cl)N/N=C1/SCC(=O)N1c1ccc([N+](=O)[O-])cc1"
Found: 47.5

Lookup: Quote inhibition in vivo at 20 mg/kg with test system Rattus norvegicus for "O=C(COc1ccc(Cl)cc1Cl)N/N=C1/SCC(=O)N1c1ccccc1"
Found: 43.5

Lookup: State inhibition in vivo at 20 mg/kg on Rattus norvegicus. Entry: "O=C(COc1ccc(Cl)cc1Cl)N/N=C1/SCC(=O)N1c1ccc(F)cc1"
Found: 55.4

Lookup: Name the value of inhibition in vivo at 20 mg/kg reported for "O=C(COc1ccc(Cl)cc1Cl)N/N=C1/SCC(=O)N1Cc1ccccc1" when tested on Rattus norvegicus.
Found: 74.5

###

test system: Rattus norvegicus; assay: Toxicity in albino Wistar rat assessed as epithelial layer damage in stomach wall at 60 to 90 mg/kg, po after 5 hrs; type: organism-based; details: in vivo
property-measured: Activity

Example results:
CCc1ccc(N2C(=O)CS/C2=N/NC(=O)COc2ccc(Cl)cc2Cl)cc1 ... Toxic
O=C(COc1ccc(Cl)cc1Cl)N/N=C1/SCC(=O)N1c1ccc(Br)cc1 ... Non-Toxic
O=C(COc1ccc(Cl)cc1Cl)N/N=C1/SCC(=O)N1C1CCCCC1 ... Non-Toxic
COc1ccc2c(c1)c(CC(=O)O)c(C)n2C(=O)c1ccc(Cl)cc1 [INDOMETHACIN] ... Toxic

Lookup: Output Activity of "O=C(COc1ccc(Cl)cc1Cl)N/N=C1/SCC(=O)N1Cc1ccccc1"
Found: Non-Toxic

###

tested on: Rattus norvegicus; test: Toxicity in albino Wistar rat assessed as gastric ulceration at 60 to 90 mg/kg, po after 5 hrs; type: organism-based; conditions: in vivo
property-measured: Activity

O=C(COc1ccc(Cl)cc1Cl)N/N=C1/SCC(=O)N1Cc1ccccc1 ... Non-Toxic
O=C(COc1ccc(Cl)cc1Cl)N/N=C1/SCC(=O)N1c1ccc(Br)cc1 ... Non-Toxic
O=C(COc1ccc(Cl)cc1Cl)N/N=C1/SCC(=O)N1C1CCCCC1 ... Non-Toxic
COc1ccc2c(c1)c(CC(=O)O)c(C)n2C(=O)c1ccc(Cl)cc1 ... Toxic
